The measured values listed here are drawn from patent US9212182B2.

Below, each entry is listed alongside its reported IC50.
# STUDY TARGET: Nav 1.7 (Homo sapiens (Human))
# Sequence (Q15858 whole entry): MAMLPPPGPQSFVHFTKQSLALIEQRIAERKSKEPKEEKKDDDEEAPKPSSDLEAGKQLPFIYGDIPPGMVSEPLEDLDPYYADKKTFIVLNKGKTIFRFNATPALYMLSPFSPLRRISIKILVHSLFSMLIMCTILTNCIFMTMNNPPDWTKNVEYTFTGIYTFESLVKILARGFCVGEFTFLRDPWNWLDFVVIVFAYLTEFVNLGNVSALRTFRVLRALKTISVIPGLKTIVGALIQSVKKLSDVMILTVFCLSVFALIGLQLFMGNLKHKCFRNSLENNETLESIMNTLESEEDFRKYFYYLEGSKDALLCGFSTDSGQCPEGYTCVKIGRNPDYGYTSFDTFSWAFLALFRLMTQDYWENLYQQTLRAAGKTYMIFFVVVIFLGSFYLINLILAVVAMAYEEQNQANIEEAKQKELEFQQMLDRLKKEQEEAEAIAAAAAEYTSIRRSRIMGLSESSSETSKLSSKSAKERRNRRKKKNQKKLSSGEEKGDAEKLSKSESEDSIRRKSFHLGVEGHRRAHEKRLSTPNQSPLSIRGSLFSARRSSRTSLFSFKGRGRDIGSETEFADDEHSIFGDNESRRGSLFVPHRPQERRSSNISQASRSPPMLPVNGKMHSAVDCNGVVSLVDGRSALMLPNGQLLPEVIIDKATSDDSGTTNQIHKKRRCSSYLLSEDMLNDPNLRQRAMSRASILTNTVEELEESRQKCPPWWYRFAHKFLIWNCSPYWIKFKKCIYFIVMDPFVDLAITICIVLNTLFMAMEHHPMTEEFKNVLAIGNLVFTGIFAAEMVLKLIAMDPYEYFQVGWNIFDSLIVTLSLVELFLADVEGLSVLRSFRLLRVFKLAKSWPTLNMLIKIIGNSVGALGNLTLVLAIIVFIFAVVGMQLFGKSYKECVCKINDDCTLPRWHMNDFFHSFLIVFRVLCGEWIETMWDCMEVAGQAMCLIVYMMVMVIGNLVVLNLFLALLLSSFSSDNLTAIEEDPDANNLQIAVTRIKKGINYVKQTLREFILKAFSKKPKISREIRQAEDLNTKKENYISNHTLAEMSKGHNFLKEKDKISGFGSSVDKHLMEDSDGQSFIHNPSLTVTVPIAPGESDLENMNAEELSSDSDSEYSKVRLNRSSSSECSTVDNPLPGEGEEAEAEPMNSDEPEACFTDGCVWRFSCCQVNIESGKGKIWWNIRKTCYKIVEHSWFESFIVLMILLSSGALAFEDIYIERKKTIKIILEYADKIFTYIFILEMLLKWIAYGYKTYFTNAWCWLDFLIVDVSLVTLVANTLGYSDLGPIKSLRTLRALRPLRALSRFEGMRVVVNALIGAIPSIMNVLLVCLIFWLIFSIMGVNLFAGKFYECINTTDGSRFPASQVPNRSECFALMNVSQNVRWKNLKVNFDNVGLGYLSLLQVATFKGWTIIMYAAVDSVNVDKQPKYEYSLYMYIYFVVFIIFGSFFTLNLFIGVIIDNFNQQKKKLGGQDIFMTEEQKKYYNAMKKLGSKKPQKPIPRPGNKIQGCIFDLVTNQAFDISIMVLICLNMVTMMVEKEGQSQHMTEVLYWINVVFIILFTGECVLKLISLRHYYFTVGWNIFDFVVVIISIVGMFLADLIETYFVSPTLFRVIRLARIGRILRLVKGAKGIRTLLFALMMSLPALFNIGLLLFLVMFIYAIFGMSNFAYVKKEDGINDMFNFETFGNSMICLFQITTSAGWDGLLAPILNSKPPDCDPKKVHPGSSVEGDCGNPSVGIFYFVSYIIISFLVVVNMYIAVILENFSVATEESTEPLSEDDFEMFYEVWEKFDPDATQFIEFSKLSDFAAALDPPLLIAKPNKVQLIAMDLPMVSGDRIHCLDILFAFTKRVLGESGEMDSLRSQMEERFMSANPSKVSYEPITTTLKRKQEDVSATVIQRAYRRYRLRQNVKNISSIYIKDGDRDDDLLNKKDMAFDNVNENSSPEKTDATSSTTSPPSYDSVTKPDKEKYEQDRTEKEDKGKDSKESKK
# MEASUREMENT NOTES: in-vitro Nav 1.7 PX (IC50)
# Type: cell-based
# RUN CONDITIONS: in-vitro Nav 1.7 PX data (PatchXpress)
Unit nM implied. Number only.

COc1cc(-c2cccc(F)c2Cl)ccc1-n1c(=O)ccc2cc(S(=O)(=O)Nc3ccon3)ccc21 [Example 1058]; 38
COc1cc(-c2cc(Cl)ccc2F)ccc1-n1c(=O)ccc2cc(S(=O)(=O)Nc3ccon3)ccc21 [Example 1034]; 10
COc1cc(-c2cc(C)ccc2F)ccc1-n1c(=O)ccc2cc(S(=O)(=O)Nc3ccon3)ccc21 [Example 1032]; 49
O=c1ccc2cc(S(=O)(=O)Nc3nncs3)ccc2n1-c1ccc(-c2cc(F)cc(F)c2)cc1C1CC1 [Example 1047]; 6500
O=c1ccc2cc(S(=O)(=O)Nc3cnccn3)ccc2n1-c1ccc(-c2cc(F)cc(F)c2)cc1C1CC1 [Example 1044]; 2950

I have this compound here, COc1cc(-c2cc(F)c(F)cc2C)ccc1-n1c(=O)ccc2cc(S(=O)(=O)Nc3ccon3)ccc21 [Example 1064] , and I need its recorded IC50.
13

I have this compound here, O=c1ccc2cc(S(=O)(=O)Nc3ccon3)ccc2n1-c1cc(F)c(Br)cc1OC1CCNC1 (stereo not drawn) [Example 625] , and I need its recorded IC50.
5610

I have this compound here, COc1cc(-c2ccc(F)cc2)ccc1-n1c(=O)ccc2cc(S(=O)(=O)Nc3ccon3)ccc21 [Example 1069] , and I need its recorded IC50.
71

I have this compound here, COc1ccc(Cl)c(-c2ccc(-n3c(=O)ccc4cc(S(=O)(=O)Nc5ccon5)ccc43)c(OC)c2)c1 [Example 1031] , and I need its recorded IC50.
25

I have this compound here, COc1cc(-c2ccc(-n3c(=O)ccc4cc(S(=O)(=O)Nc5ncco5)ccc43)c(OC)c2)ccc1Cl [Example 1039] , and I need its recorded IC50.
149

I have this compound here, COc1cc(C)ccc1-c1ccc(-n2c(=O)ccc3cc(S(=O)(=O)Nc4ccon4)ccc32)c(OC)c1 [Example 1063] , and I need its recorded IC50.
98

I have this compound here, COc1cc(-c2ccc(C)cc2Cl)ccc1-n1c(=O)ccc2cc(S(=O)(=O)Nc3ccon3)ccc21 [Example 1060] , and I need its recorded IC50.
28

I have this compound here, COc1cc(-c2cccc(Cl)c2F)ccc1-n1c(=O)ccc2cc(S(=O)(=O)Nc3ccon3)ccc21 [Example 1057] , and I need its recorded IC50.
11

I have this compound here, COc1cc(-c2cccc(C)c2C)ccc1-n1c(=O)ccc2cc(S(=O)(=O)Nc3ccon3)ccc21 [Example 1056] , and I need its recorded IC50.
25

I have this compound here, COc1ccc(F)c(-c2ccc(-n3c(=O)ccc4cc(S(=O)(=O)Nc5ccon5)ccc43)c(OC)c2)c1 [Example 1033] , and I need its recorded IC50.
64
